Where these numbers come from: patent US20100143992A1

Procedure Details: Extraction of isobutanol from an aqueous solution by ionic liquid
Format: physicochemical
Protocol Conditions: 3 mL aqueous solution, about 31 g/L isobutanol, 5 vol % ionic liquid, overnight equilibration; control 32.3
Outcome Measure: g/L isobutanol left in solution (g/L)
State just the number; it will be interpreted in g/L.

Below, each entry is followed by its recorded g/L isobutanol left in solution result.
CCOCC[N+](C)(C)CCN1C(=O)CCC1C (stereo not drawn) [[MeDMEEAP] [HFPS]] ... 31.3
CC1CCC(=O)N1CC[N+](C)(C)CCO.O=S(=O)([N-]S(=O)(=O)C(F)(F)F)C(F)(F)F (stereo not drawn) [[MeDHEAP] [Tf2N]] ... 30.9
CCC[N+](C)(C)CCN1C(=O)CCC1C.O=S(=O)([N-]S(=O)(=O)C(F)(F)F)C(F)(F)F (stereo not drawn) [[MeDMPAP] [Tf2N]] ... 28.7
CCOCC[N+](C)(C)CCN1C(=O)CCC1C (stereo not drawn) [[MeDMEEAP] [Tf2N]] ... 29.5
COCC[N+](C)(C)CCN1C(=O)CCC1C.O=S(=O)([N-]S(=O)(=O)C(F)(F)F)C(F)(F)F (stereo not drawn) [[[MeDMMEAP] [Tf2N]] ... 28.8

## Task Entry COCC[N+](C)(C)CCN1C(=O)CCC1C (stereo not drawn) [[MeDMMEAP] [HFPS]] has what g/L isobutanol left in solution?
## Result 31.4
